- Tested on: Staphylococcus aureus
- measurementNotes: Antibacterial activity against Staphylococcus aureus MTCC 96 at 100 ug incubated for 24 hrs under dark condition by agar well diffusion method
- Assay type: functional
- assayContext: MTCC 96, 24 h, read-out: IZ
Here the recorded zone of inhibition at 100 µg/disc is given for each entry.

compound	zone of inhibition at 100 µg/disc [mm]
COc1ccc(N2N=C3c4cc(Cl)cc([N+](=O)[O-])c4NCC3C2c2ccc(Cl)cc2)cc1 (stereo unspecified)	13
N#CC1=C(N)OC2=C(CNc3c2cccc3[N+](=O)[O-])C1c1ccc(Cl)cc1 (stereo unspecified)	21
O=[N+]([O-])c1cc(Cl)cc2c1NCC1C2=NNC1c1ccc(F)cc1 (stereo unspecified)	12
O=[N+]([O-])c1cccc2c1NCC1C2=NN(c2ccccc2)C1c1ccc(Br)cc1 (stereo unspecified)	16
N#CC1=C(N)OC2=C(CNc3c2cccc3[N+](=O)[O-])C1c1ccc(F)cc1 (stereo unspecified)	23
COc1ccc(C2C(C#N)=C(N)OC3=C2CNc2c3cccc2[N+](=O)[O-])cc1 (stereo unspecified)	21
N#CC1=C(N)OC2=C(CNc3c2cccc3[N+](=O)[O-])C1c1cccs1 (stereo unspecified)	23
COc1ccc(C2C(C#N)=C(N)OC3=C2CNc2c3cccc2[N+](=O)[O-])c(OC)c1 (stereo unspecified)	14
Cc1ccc(C2C(C#N)=C(N)OC3=C2CNc2c3cccc2[N+](=O)[O-])cc1 (stereo unspecified)	13
Cc1ccc(C2C3CNc4c(cccc4[N+](=O)[O-])C3=NN2c2ccccc2)cc1 (stereo unspecified)	12
O=[N+]([O-])c1cccc2c1NCC1C2=NN(c2ccccc2)C1c1ccc(F)cc1 (stereo unspecified)	20
N#CC1=C(N)OC2=C(CNc3c2cccc3[N+](=O)[O-])C1c1ccc(Br)cc1 (stereo unspecified)	20
N#CC1=C(N)OC2=C(CNc3c2cc(Cl)cc3[N+](=O)[O-])C1c1ccc(Cl)cc1 (stereo unspecified)	15
CC1(C)S[C@@H]2[C@H](NC(=O)[C@H](N)c3ccccc3)C(=O)N2[C@H]1C(=O)O	24
O=[N+]([O-])c1cc(Cl)cc2c1NCC1C2=NNC1c1ccc(Cl)cc1 (stereo unspecified)	13
CCOc1ccc(C2C3CNc4c(cccc4[N+](=O)[O-])C3=NN2c2ccccc2)c(OCC)c1 (stereo unspecified)	19
COc1ccc(C2C3CNc4c(cccc4[N+](=O)[O-])C3=NN2c2ccccc2)cc1OC (stereo unspecified)	19
O=[N+]([O-])c1cccc2c1NCC1C2=NN(c2ccccc2)C1c1ccccc1 (stereo unspecified)	8
COc1ccc(C2C3CNc4c(cccc4[N+](=O)[O-])C3=NN2c2ccccc2)cc1 (stereo unspecified)	15
O=[N+]([O-])c1cccc2c1NCC1C2=NN(c2ccccc2)C1c1ccc(Cl)cc1 (stereo unspecified)	17
COc1ccc(C2C(C#N)=C(N)OC3=C2CNc2c3cccc2[N+](=O)[O-])cc1OC (stereo unspecified)	14

----------
- Tested on: Escherichia coli
- measurementNotes: Antibacterial activity against Escherichia coli MTCC 1652 incubated for 24 hrs under dark condition by microwell dilution method
- Format: functional
- assayContext: MTCC 1652, 24 h
Here the recorded log10 MIC is given for each entry.
testReadout: log10 MIC (log10 of the value in µg/mL)

molecule	targetDesc	testReadout	obsValue
N#CC1=C(N)OC2=C(CNc3c2cc(Cl)cc3[N+](=O)[O-])C1c1ccc(Cl)cc1 (stereo unspecified)	Escherichia coli	log10 MIC	1.41
CC1(C)S[C@@H]2[C@H](NC(=O)[C@H](N)c3ccccc3)C(=O)N2[C@H]1C(=O)O [AMPICILLIN]	Escherichia coli	log10 MIC	0.93
O=[N+]([O-])c1cc(Cl)cc2c1NCC1C2=NNC1c1ccc(F)cc1 (stereo unspecified)	Escherichia coli	log10 MIC	1.91
N#CC1=C(N)OC2=C(CNc3c2cccc3[N+](=O)[O-])C1c1ccc(F)cc1 (stereo unspecified)	Escherichia coli	log10 MIC	1.23
COc1ccc(C2C3CNc4c(cccc4[N+](=O)[O-])C3=NN2c2ccccc2)cc1 (stereo unspecified)	Escherichia coli	log10 MIC	1.63
O=[N+]([O-])c1cccc2c1NCC1C2=NN(c2ccccc2)C1c1ccccc1 (stereo unspecified)	Escherichia coli	log10 MIC	1.78
N#CC1=C(N)OC2=C(CNc3c2cccc3[N+](=O)[O-])C1c1ccc(Br)cc1 (stereo unspecified)	Escherichia coli	log10 MIC	1.41
CCOc1ccc(C2C3CNc4c(cccc4[N+](=O)[O-])C3=NN2c2ccccc2)c(OCC)c1 (stereo unspecified)	Escherichia coli	log10 MIC	1.53
N#CC1=C(N)OC2=C(CNc3c2cccc3[N+](=O)[O-])C1c1cccs1 (stereo unspecified)	Escherichia coli	log10 MIC	1.23
N#CC1=C(N)OC2=C(CNc3c2cccc3[N+](=O)[O-])C1c1ccc(Cl)cc1 (stereo unspecified)	Escherichia coli	log10 MIC	1.23
COc1ccc(C2C3CNc4c(cccc4[N+](=O)[O-])C3=NN2c2ccccc2)cc1OC (stereo unspecified)	Escherichia coli	log10 MIC	1.53
O=[N+]([O-])c1cccc2c1NCC1C2=NN(c2ccccc2)C1c1ccc(F)cc1 (stereo unspecified)	Escherichia coli	log10 MIC	1.23
Cc1ccc(C2C(C#N)=C(N)OC3=C2CNc2c3cccc2[N+](=O)[O-])cc1 (stereo unspecified)	Escherichia coli	log10 MIC	1.41
O=[N+]([O-])c1cc(Cl)cc2c1NCC1C2=NNC1c1ccc(Cl)cc1 (stereo unspecified)	Escherichia coli	log10 MIC	1.99
O=[N+]([O-])c1cccc2c1NCC1C2=NN(c2ccccc2)C1c1ccc(Cl)cc1 (stereo unspecified)	Escherichia coli	log10 MIC	1.53
COc1ccc(C2C(C#N)=C(N)OC3=C2CNc2c3cccc2[N+](=O)[O-])cc1 (stereo unspecified)	Escherichia coli	log10 MIC	1.23
COc1ccc(C2C(C#N)=C(N)OC3=C2CNc2c3cccc2[N+](=O)[O-])cc1OC (stereo unspecified)	Escherichia coli	log10 MIC	1.91
Cc1ccc(C2C3CNc4c(cccc4[N+](=O)[O-])C3=NN2c2ccccc2)cc1 (stereo unspecified)	Escherichia coli	log10 MIC	1.91
O=[N+]([O-])c1cccc2c1NCC1C2=NN(c2ccccc2)C1c1ccc(Br)cc1 (stereo unspecified)	Escherichia coli	log10 MIC	1.41
COc1ccc(C2C(C#N)=C(N)OC3=C2CNc2c3cccc2[N+](=O)[O-])c(OC)c1 (stereo unspecified)	Escherichia coli	log10 MIC	1.63
COc1ccc(N2N=C3c4cc(Cl)cc([N+](=O)[O-])c4NCC3C2c2ccc(Cl)cc2)cc1 (stereo unspecified)	Escherichia coli	log10 MIC	1.91

----------
- measurementNotes: Antioxidant activity assessed as assessed as ferric ion reducing activity by measuring absorbance at 700 nm at 100 ug/ml after 20 mins by spectrophotometric method
- Assay type: functional
Returns one of 1 or 0; 1 when OD is >= 0.2.

compound	discreteLabel
COc1ccc(C2C(C#N)=C(N)OC3=C2CNc2c3cccc2[N+](=O)[O-])cc1 (centres undefined)	1
N#CC1=C(N)OC2=C(CNc3c2cccc3[N+](=O)[O-])C1c1ccc(Cl)cc1 (centres undefined)	0
O=[N+]([O-])c1cc(Cl)cc2c1NCC1C2=NNC1c1ccc(Cl)cc1 (centres undefined)	0
COc1ccc(C2C3CNc4c(cccc4[N+](=O)[O-])C3=NN2c2ccccc2)cc1OC (centres undefined)	0
N#CC1=C(N)OC2=C(CNc3c2cccc3[N+](=O)[O-])C1c1cccs1 (centres undefined)	0
COc1ccc(N2N=C3c4cc(Cl)cc([N+](=O)[O-])c4NCC3C2c2ccc(Cl)cc2)cc1 (centres undefined)	1
O=[N+]([O-])c1cccc2c1NCC1C2=NN(c2ccccc2)C1c1ccc(Br)cc1 (centres undefined)	0
N#CC1=C(N)OC2=C(CNc3c2cccc3[N+](=O)[O-])C1c1ccc(Br)cc1 (centres undefined)	0
COc1ccc(C2C(C#N)=C(N)OC3=C2CNc2c3cccc2[N+](=O)[O-])c(OC)c1 (centres undefined)	0

----------
- measurementNotes: Antioxidant activity assessed as assessed as ferric ion reducing activity by measuring absorbance at 700 nm at 20 ug/ml after 20 mins by spectrophotometric method
- Assay type: functional
Returns one of True or False; True when OD is >= 0.09.

compound	discreteLabel
COc1ccc(C2C(C#N)=C(N)OC3=C2CNc2c3cccc2[N+](=O)[O-])c(OC)c1 (stereo unspecified)	False
CCOc1ccc(C2C3CNc4c(cccc4[N+](=O)[O-])C3=NN2c2ccccc2)c(OCC)c1 (stereo unspecified)	False
N#CC1=C(N)OC2=C(CNc3c2cc(Cl)cc3[N+](=O)[O-])C1c1ccc(Cl)cc1 (stereo unspecified)	True
O=[N+]([O-])c1cc(Cl)cc2c1NCC1C2=NNC1c1ccc(F)cc1 (stereo unspecified)	False
O=[N+]([O-])c1cc(Cl)cc2c1NCC1C2=NNC1c1ccc(Cl)cc1 (stereo unspecified)	False
O=[N+]([O-])c1cccc2c1NCC1C2=NN(c2ccccc2)C1c1ccccc1 (stereo unspecified)	False
COc1ccc(C2C(C#N)=C(N)OC3=C2CNc2c3cccc2[N+](=O)[O-])cc1 (stereo unspecified)	True
COc1ccc(N2N=C3c4cc(Cl)cc([N+](=O)[O-])c4NCC3C2c2ccc(Cl)cc2)cc1 (stereo unspecified)	True
Cc1ccc(C2C3CNc4c(cccc4[N+](=O)[O-])C3=NN2c2ccccc2)cc1 (stereo unspecified)	False
Cc1cc(C(C)(C)C)c(O)c(C(C)(C)C)c1	True
COc1ccc(C2C3CNc4c(cccc4[N+](=O)[O-])C3=NN2c2ccccc2)cc1OC (stereo unspecified)	False
N#CC1=C(N)OC2=C(CNc3c2cccc3[N+](=O)[O-])C1c1ccc(Br)cc1 (stereo unspecified)	False
O=[N+]([O-])c1cccc2c1NCC1C2=NN(c2ccccc2)C1c1ccc(Cl)cc1 (stereo unspecified)	False
COc1ccc(C2C(C#N)=C(N)OC3=C2CNc2c3cccc2[N+](=O)[O-])cc1OC (stereo unspecified)	False
N#CC1=C(N)OC2=C(CNc3c2cccc3[N+](=O)[O-])C1c1ccc(F)cc1 (stereo unspecified)	False
N#CC1=C(N)OC2=C(CNc3c2cccc3[N+](=O)[O-])C1c1cccs1 (stereo unspecified)	True

From: ChEMBL document CHEMBL4004883
